Molecular target: Myo3, P36006
Test: SPOT array
Settings: median of control spots 468
Readout name: SPOT intensity

Below, each entry is followed by its recorded SPOT intensity result.
* EREKALPPIPFTTTL | 0
* GDHPKGPPPPPPPPD | 456
* KKIRLIFTYPSTVGR | 41

(A) YYNRQELALPKRMSS
(B) KWVRRPKLMTPLTFS
Input: Please indicate which entry, A or B , has the lower recorded SPOT intensity value. Your choice should be expressed through its label.
Output: B
(B: 6, A: 11)

(P) MARRRLPDRPPNGIG
(Q) FLIKFTPKFPQSIDH
Input: I'm curious whether P or Q has the smaller SPOT intensity number. Which is it? // output: label of the selected item
Output: P

The measured values listed here are drawn from paper PMC2756588.
